Data origin: patent US6303749A

# IC50 per record follows
experimental.target: human melanocortin-3 (MC-3) receptors (Homo sapiens, UniProt P41968)
Construct: expressed in transfected cells; membrane fraction used
Sequence (P41968 whole entry): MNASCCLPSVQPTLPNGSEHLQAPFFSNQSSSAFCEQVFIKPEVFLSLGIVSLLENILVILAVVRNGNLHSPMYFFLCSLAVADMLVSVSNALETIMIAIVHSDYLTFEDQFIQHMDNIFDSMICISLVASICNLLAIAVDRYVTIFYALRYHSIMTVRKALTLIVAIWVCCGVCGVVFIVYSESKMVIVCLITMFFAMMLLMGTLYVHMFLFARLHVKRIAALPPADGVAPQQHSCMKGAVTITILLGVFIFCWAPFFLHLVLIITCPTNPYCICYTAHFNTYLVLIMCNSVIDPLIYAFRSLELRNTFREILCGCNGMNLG
measurement.description: Melanocortin receptor binding assay, 125I-AGRP competition, MC-3
particulars: Table II; HEK 293 cell membranes; 125I-AGRP 1.10 nM; read-out: hMC3 IC50 (nM) 125I-AGRP
Square brackets hold non-standard residues; d marks the D form. Ends that are not written are not given here. Abu = CC[C@H](N)C(=O)O

substance	IC50
AC[Abu]DP[Abu]AS[Abu]QCRFFRSACSCRVL (cysteine pairing not given here) [SEQ ID NO:16]	> 1000 nM
His-Glu-Ser-Abu-Leu-Gly-Gln-Gln-Val-Pro-Cys-Abu-Asp-Pro-Abu-Ala-Thr-Abu-Tyr-Cys-Arg-Phe-Phe-Asn-Ala-Phe-Cys-Tyr-Cys-Arg-Lys-Leu [SEQ ID NO:4]	90 nM
HESCLGQQVPC[Abu]DP[Abu]ATCY[Abu]RFFNAF[Abu]YCRKL (cysteine pairing not given here) [SEQ ID NO:5]	> 1000 nM
[Abu][Abu]DPCAT[Abu]YCRFFNAFCY[Abu]RKLGTAMNPCSRT (cysteine pairing not given here) [SEQ ID NO:9]	700 nM
HESCLGQQVP[Abu][Abu]DP[Abu]ATCYCRFFNAFCY[Abu]RKL (cysteine pairing not given here) [SEQ ID NO:3]	> 1000 nM

Please indicate recorded IC50 of Cys-Abu-Asp-Pro-Abu-Ala-Thr-Abu-Tyr-Cys-Arg-Phe-Phe-Asn-Ala-Phe-Cys-Tyr-Cys-Arg-Lys-Leu-Gly-Thr-Ala-Met-Asn-Pro-Abu-Ser-Arg-Thr [SEQ ID NO:10] measured with human melanocortin-3 (MC-3) receptors (Homo sapiens, UniProt P41968).
147 nM

Please indicate recorded IC50 of RNS[Abu]KPPAPAC[Abu]DP[Abu]AS[Abu]QCRFFRSACSCRVL (cysteine pairing not given here) [SEQ ID NO:15] measured with human melanocortin-3 (MC-3) receptors (Homo sapiens, UniProt P41968).
> 1000 nM

Please indicate recorded IC50 of RNSCKPPAPAC[Abu]DP[Abu]ASCQCRFFRSACSCRVL (cysteine pairing not given here) [SEQ ID NO:13] measured with human melanocortin-3 (MC-3) receptors (Homo sapiens, UniProt P41968).
> 1000 nM
